Assay: Solubility Screening of CHG in vehicles, Vacuum Method
READOUT_LABEL: Final State

Worked examples, 5 molecules total:
COCCOCCOC [Diethyleneglycol Dimethyl Ether] : Inhomogeneous
CCCCCCCC(=O)OCC(O)CO (centres unmarked) [Glyceryl monocaprylate] : Homogeneous
CCOC(=O)C(=O)OCC [Oxalic Acid Diethyl Ester] : Inhomogeneous
CC(O)C(C)O (centres unmarked) [2,3-butanediol] : Homogeneous
OCCCCO [1,4-butanediol] : Homogeneous

# per-item lookup of Final State; items listed below
1. CC(C)(O)C(C)(C)O [2,3-dimethyl-2,3-butanediol]
2. OCC(O)CO [Glycerol]
3. CCOC(=O)[C@H](O)[C@@H](O)C(=O)OCC [Diethyl-L-Tartrate]
4. OCCCCCO [1,5-pentanediol]
5. CC(C)OC(=O)[C@@H](O)[C@H](O)C(=O)OC(C)C [Diisopropyl-D-Tartrate]

Result:
Inhomogeneous
Homogeneous
Homogeneous
Inhomogeneous
Inhomogeneous

Ask: Provide only the value of recorded Final State for CCCCC(CC)COCC(O)CO (centres unmarked) [Ethylhexyl glycerin]
Result: Homogeneous
